Provenance of the data: patent US8436015B2

pIC50: −log10 of the molar value.
Endpoint: pIC50. System: UniProt P47871. Items follow.
Sequence (P47871 26-477): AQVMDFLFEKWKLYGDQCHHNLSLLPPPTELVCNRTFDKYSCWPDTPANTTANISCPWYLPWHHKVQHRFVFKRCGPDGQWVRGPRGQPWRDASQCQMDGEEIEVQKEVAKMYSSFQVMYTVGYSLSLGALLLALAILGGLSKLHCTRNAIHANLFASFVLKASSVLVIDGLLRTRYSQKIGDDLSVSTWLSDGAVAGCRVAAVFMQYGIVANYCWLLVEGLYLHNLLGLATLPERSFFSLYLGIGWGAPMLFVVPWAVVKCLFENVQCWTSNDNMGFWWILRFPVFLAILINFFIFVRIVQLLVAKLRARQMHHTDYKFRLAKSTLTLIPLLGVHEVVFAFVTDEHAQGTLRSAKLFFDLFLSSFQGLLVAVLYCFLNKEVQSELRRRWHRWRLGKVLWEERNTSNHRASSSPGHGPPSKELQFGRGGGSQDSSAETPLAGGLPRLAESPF

- Molecule: "CCC[C@H](c1ccc(C(=O)NCCC(=O)O)cc1)C(c1ccc(Cl)cc1)c1cnc2cc(C(F)(F)F)ccc2c1 (single isomer, unassigned) [Example 3]"
  pIC50: 8.30
- Molecule: "CCCC(c1ccc(C(=O)NCCC(=O)O)cc1)C(c1ccc(OC(F)(F)F)cc1)c1cncc2cc(Cl)ccc12 (centres unmarked) [Example 139]"
  pIC50: 9.52
- Molecule: "CCC[C@H](c1ccc(C(=O)NCCC(=O)O)cc1)C(c1ccc(Cl)cc1)c1ccnc2cc(F)c(F)cc12 (single isomer, unassigned) [Example 157]"
  pIC50: 9.52
- Molecule: "CCC[C@H](c1ccc(C(=O)NCCC(=O)O)cc1)C(c1ccc(Cl)cc1)c1ccnc2c(C)cc(Cl)cc12 (single isomer, unassigned) [Example 1]"
  pIC50: 9.00
- Molecule: "O=C(O)CCNC(=O)c1ccc(C(CCC(F)(F)F)C(c2ccc(Cl)cc2)c2cncc3cc(Cl)ccc23)cc1 (centres unmarked) [Example 138]"
  pIC50: 9.40
- Molecule: "CCCC(c1ccc(C(=O)NCCC(=O)O)cc1)C(c1ccc(Cl)cc1)c1ccnc2c(C)cc(OC(F)(F)F)cc12 (centres unmarked) [Example 52]"
  pIC50: 8.96
- Molecule: "CCCC(c1ccc(C(=O)NCCC(=O)O)cc1)C(c1ccc(Cl)cc1)c1cncc2c(Cl)cccc12 (centres unmarked) [Example 131]"
  pIC50: 9.30
- Molecule: "CCCC(c1ccc(C(=O)NCCC(=O)O)cc1)C(c1ccc(Cl)cc1)c1ccnc2c(C)cc(F)cc12 (centres unmarked) [Example 35]"
  pIC50: 9.10
